test: MTT cytotoxicity, fibroblasts control cells; format: cell-based, human; conditions: Caco-2
Where a SMILES comes first, the peptide text is derived from it. [ ]: non-standard residue; d: D form. Orn = NCCC[C@H](N)C(=O)O
RECORDED ENDPOINT: selectivity ratio
// return just the number, without any unit appended

## Input selectivity ratio lookup needed for N=C(N)NCCC[C@H](NC(=O)[C@H](Cc1c[nH]c2ccccc12)NC(=O)[C@H](CCC(N)=O)NC(=O)[C@H](Cc1c[nH]c2ccccc12)NC(=O)[C@@H](N)CCCNC(=N)N)C(=O)N[C@@H](Cc1c[nH]c2ccccc12)C(=O)N[C@@H](CCC(N)=O)C(=O)N[C@@H](Cc1c[nH]c2ccccc12)C(=O)N[C@@H](CCCN)C(N)=O [^9[Orn] [Pal]] (H-RWQWRWQW[Orn]-NH2) , thanks.
## Output 1.4

* * *

test: Hemolytic activity; assay type: cell-based, human; settings: Caco-2
Where a SMILES comes first, the peptide text is derived from it. [ ]: non-standard residue; d: D form. Orn = NCCC[C@H](N)C(=O)O; Ahx = NCCCCCC(=O)O
Catalogue of molecules with associated selectivity ratio

molecule="N=C(N)NCCC[C@H](NC(=O)[C@H](Cc1c[nH]c2ccccc12)NC(=O)[C@H](CCC(N)=O)NC(=O)[C@H](Cc1c[nH]c2ccccc12)NC(=O)[C@H](CCCNC(=N)N)NC(=O)[C@H](Cc1c[nH]c2ccccc12)NC(=O)[C@H](CCC(N)=O)NC(=O)[C@H](Cc1c[nH]c2ccccc12)NC(=O)[C@H](CCCNC(=N)N)NC(=O)CCCCCN)C(N)=O [Ahx-[Pal]] (H-[Ahx]RWQWRWQWR-NH2)" recorded_endpoint="selectivity ratio" result="> 3.1"

Now turn to the next molecule.
## Input Entry N=C(N)NCCC[C@H](NC(=O)[C@H](Cc1c[nH]c2ccccc12)NC(=O)[C@H](CCC(N)=O)NC(=O)[C@H](Cc1c[nH]c2ccccc12)NC(=O)[C@@H](N)CCCNC(=N)N)C(=O)N[C@@H](Cc1c[nH]c2ccccc12)C(=O)N[C@@H](CCC(N)=O)C(=O)N[C@@H](Cc1c[nH]c2ccccc12)C(=O)N[C@@H](CCCN)C(N)=O [^9[Orn] [Pal]] (H-RWQWRWQW[Orn]-NH2) : reported selectivity ratio = ?
## Output > 3.4
